ASSAY_COMMENT: Confirmation screen for delayed death inhibitors of the malarial parasite plastid, 96 hour incubation; note: nearly all actives have a fitted effect of over 60% in size
MEASUREMENT_CONTEXT: P. falciparum luciferase growth in erythrocytes; series mostly up to 28.7 µM
The campaign covered roughly 2,300 compounds. About 1,400 (61%) were called active. Roughly 29% stayed inconclusive and do not appear here. Calls come from the whole dose curve; as a rule, active = well fitted inhibition curve with a large enough effect; inconclusive = small, poorly fitted or top-dose-only effect, or effect the other way; inactive = no such curve, though single readings can be large or run the other way. The set was probably picked from earlier hits. The list shows a part of the results.
Outcome codes: yes for active, no for inactive

CCOC(=O)Nc1ccc2c(CNC(C)c3ccccc3OC)cc(=O)oc2c1 (stereo unspecified) | yes
O=C1c2cc(F)ccc2-n2c1nc1ccccc1c2=O | yes
CSc1ccccc1OCc1cc(C(=O)N(C)CCc2c(C)n[nH]c2C)no1 | yes
CN(CCCN1c2ccccc2CCc2ccccc21)CC(=O)c1ccc(Cl)cc1 | yes
COC(=O)COc1ccc2c(=O)c(-c3ccccc3OC)coc2c1 | no
CSc1ccccc1OCc1cc(C(=O)NCCn2ccnc2C)no1 | no

* * *

ASSAY_COMMENT: Confirmation screen for delayed death inhibitors of the malarial parasite plastid, 96 hour incubation; note: nearly all actives have a fitted effect of over 60% in size
MEASUREMENT_CONTEXT: P. falciparum luciferase growth in erythrocytes; series mostly up to 28.7 µM
Out of some 2,300 compounds screened, about 1,400 (61%) were called active. Not shown: some 29% with an inconclusive outcome. Calls come from the whole dose curve; as a rule, active = well fitted inhibition curve with a large enough effect; inconclusive = small, poorly fitted or top-dose-only effect, or effect the other way; inactive = no such curve, though single readings can be large or run the other way. So high a share suggests a set chosen from earlier hits. Some of the results follow.
Outcome codes: class 1 = active, class 0 = inactive

COC(=O)c1ccc(CNCC(=O)Nc2ccc(C(=O)OC)cc2)cc1 | class 0
COC(=O)c1ccc(NC(=O)C[n+]2ccccc2C)cc1 | class 1
O=c1cc(CSc2nc(NCc3ccccc3)c3ccccc3n2)nc2ccc(Cl)cn12 | class 1

* * *

ASSAY_COMMENT: Confirmation screen for delayed death inhibitors of the malarial parasite plastid, 96 hour incubation; note: nearly all actives have a fitted effect of over 60% in size
MEASUREMENT_CONTEXT: P. falciparum luciferase growth in erythrocytes; series mostly up to 28.7 µM
The campaign covered roughly 2,300 compounds. About 1,400 (61%) were called active. Another 29% or so got no clear call; they are omitted. Calls come from the whole dose curve; as a rule, active = well fitted inhibition curve with a large enough effect; inconclusive = small, poorly fitted or top-dose-only effect, or effect the other way; inactive = no such curve, though single readings can be large or run the other way. So high a share suggests a set chosen from earlier hits. This is one part of the list.
Outcome codes: active, inactive

COc1ccc2[nH]c3c(NCCC4=CCCCC4)ncnc3c2c1 | active
CCN(CC)c1ccc(/C=N/Nc2nc3ccccc3[nH]2)cc1 | active
CCCc1cc(=O)n2nc(N3CCC(C(=O)N4CCN(c5ccc(OC)cc5)CC4)CC3)sc2n1 | active
Cc1ccc(CNS(=O)(=O)c2ccc(C)s2)cc1 | inactive
CCOC(=O)c1c(C)nc(C)c(C(=O)OCC)c1-c1ccc(Br)cc1 | active
COc1cccc(NC(=O)c2ccc3c(c2)C(=O)N(CC2CCCO2)C3=O)c1 (configuration not stated) | inactive
Cn1c(=O)oc2cc(S(=O)(=O)NCCC(=O)NCc3ccc(F)cc3)ccc21 | active
N#C/C(=C\C=C\c1ccccc1[N+](=O)[O-])C(=O)NC1CCCCC1 | active
COCCNC(=O)/C(C#N)=C/C=C/c1ccccc1[N+](=O)[O-] | active
COc1cccc(NC(=O)c2ccc(CN3CCN(c4ccccc4)CC3)cc2)c1 | active
CCOc1ccc(C2C3=C(Nc4nc(N)[nH]c(=O)c42)c2ccccc2C3=O)cc1 (configuration not stated) | active
COCCNC(=O)CCCCCN1C(=O)CCC1=O | inactive
COc1cc(CN2CCN(Cc3c[nH]c4ccccc34)CC2CCO)cc(OC)c1 (configuration not stated) | active
Cn1nnnc1Sc1ncnc2scc(-c3ccc[nH]3)c12 | active
COC(=O)C(=Cc1ccccc1[N+](=O)[O-])C(=O)OC | active
CC1=Nc2cc(C(=O)N3CCCC3)ccc2Sc2c(C)ccc(C)c21 | active
CC(C)N1C/C(=C/c2ccsc2)C(=O)/C(=C/c2ccsc2)C1 | active
